Tested on: Staphylococcus aureus
Assay: Minimum inhibitory concentration against Staphylococcus aureus
Format: functional

{"smiles_repr": "CC[C@H]1OC(=O)[C@H](C)[C@H]2OC3(CCN(CCc4ccc(Cl)c(Cl)c4)CC3)O[C@](C)(C[C@@H](C)CN[C@H](C)[C@@H](O)[C@]1(C)O)[C@H](O[C@@H]1O[C@H](C)C[C@H](N(C)C)[C@H]1O)[C@H]2C", "MIC [µg/mL]": 0.39}
{"smiles_repr": "CC[C@H]1OC(=O)[C@H](C)[C@H]2OC3(CCN(C(=O)c4cccnc4)CC3)O[C@](C)(C[C@@H](C)CN(C)[C@H](C)[C@@H](O)[C@]1(C)O)[C@H](O[C@@H]1O[C@H](C)C[C@H](N(C)C)[C@H]1O)[C@H]2C", "MIC [µg/mL]": 1.56}
{"smiles_repr": "CC[C@H]1OC(=O)[C@H](C)[C@H]2OC3(CCN(CCc4ccnc5ccccc45)CC3)O[C@](C)(C[C@@H](C)CN(C)[C@H](C)[C@@H](O)[C@]1(C)O)[C@H](O[C@@H]1O[C@H](C)C[C@H](N(C)C)[C@H]1O)[C@H]2C", "MIC [µg/mL]": 0.39}
{"smiles_repr": "CC[C@H]1OC(=O)[C@H](C)[C@H]2OC3(CCN(CCc4ccc(C#N)cc4)CC3)O[C@](C)(C[C@@H](C)CN(C)[C@H](C)[C@@H](O)[C@]1(C)O)[C@H](O[C@@H]1O[C@H](C)C[C@H](N(C)C)[C@H]1O)[C@H]2C", "MIC [µg/mL]": 0.78}

---

This listing pairs compounds with measured ED50.
Tested on: Staphylococcus aureus
Assay: Effective dose required to inhibit Staphylococcus aureus intraperitoneal (IP) infection model
Assay type: functional

{"smiles_repr": "CC[C@H]1OC(=O)[C@H](C)[C@H]2OC3(CCN(Cc4ccncc4)CC3)O[C@](C)(C[C@@H](C)CN[C@H](C)[C@@H](O)[C@]1(C)O)[C@H](O[C@@H]1O[C@H](C)C[C@H](N(C)C)[C@H]1O)[C@H]2C", "target_desc": "Staphylococcus aureus", "value_prefix": "=", "ED50 (mg/kg)": 6.4}
{"smiles_repr": "CC[C@H]1OC(=O)[C@H](C)[C@H]2OC3(CCN(CCc4ccc5ccccc5n4)CC3)O[C@](C)(C[C@@H](C)CN(C)[C@H](C)[C@@H](O)[C@]1(C)O)[C@H](O[C@@H]1O[C@H](C)C[C@H](N(C)C)[C@H]1O)[C@H]2C", "target_desc": "Staphylococcus aureus", "value_prefix": ">", "ED50 (mg/kg)": 20}

---

Tested on: Staphylococcus aureus
Assay: Minimum inhibitory concentration against Staphylococcus aureus
Type: functional

{"smiles_repr": "CC[C@H]1OC(=O)[C@H](C)[C@H]2OC3(CCN(C(=O)c4ccnc5ccccc45)CC3)O[C@](C)(C[C@@H](C)CN[C@H](C)[C@@H](O)[C@]1(C)O)[C@H](O[C@@H]1O[C@H](C)C[C@H](N(C)C)[C@H]1O)[C@H]2C", "output_unit": "µg/mL", "MIC": 0.39}
{"smiles_repr": "CC[C@H]1OC(=O)[C@H](C)[C@H]2OC3(CCN(Cc4ccccn4)CC3)O[C@](C)(C[C@@H](C)CN[C@H](C)[C@@H](O)[C@]1(C)O)[C@H](O[C@@H]1O[C@H](C)C[C@H](N(C)C)[C@H]1O)[C@H]2C", "output_unit": "µg/mL", "MIC": 0.6}

---

This listing pairs molecules with measured MIC.
Tested on: Escherichia coli
Experiment: Minimum inhibitory concentration against Escherichia coli
Format: functional
measured_endpoint: MIC (µg/mL)

{"smiles_repr": "CC[C@H]1OC(=O)[C@H](C)[C@H]2OC3(CCN(C(=O)c4ccc[nH]4)CC3)O[C@](C)(C[C@@H](C)CN[C@H](C)[C@@H](O)[C@]1(C)O)[C@H](O[C@@H]1O[C@H](C)C[C@H](N(C)C)[C@H]1O)[C@H]2C", "measured_value": 0.78}
{"smiles_repr": "CC[C@H]1OC(=O)[C@H](C)[C@H]2OC3(CCN(C(=O)c4cccnc4)CC3)O[C@](C)(C[C@@H](C)CN[C@H](C)[C@@H](O)[C@]1(C)O)[C@H](O[C@@H]1O[C@H](C)C[C@H](N(C)C)[C@H]1O)[C@H]2C", "measured_value": 3.13}
{"smiles_repr": "CC[C@H]1OC(=O)[C@H](C)[C@H]2OC3(CCN(CCc4ccnc5ccccc45)CC3)O[C@](C)(C[C@@H](C)CN(C)[C@H](C)[C@@H](O)[C@]1(C)O)[C@H](O[C@@H]1O[C@H](C)C[C@H](N(C)C)[C@H]1O)[C@H]2C", "measured_value": 1.56}
{"smiles_repr": "CC[C@H]1OC(=O)[C@H](C)[C@H]2OC3(CCN(CCc4ccccc4OC)CC3)O[C@](C)(C[C@@H](C)CN(C)[C@H](C)[C@@H](O)[C@]1(C)O)[C@H](O[C@@H]1O[C@H](C)C[C@H](N(C)C)[C@H]1O)[C@H]2C", "measured_value": 0.1}

---

Tested on: Escherichia coli
Experiment: Minimum inhibitory concentration against Escherichia coli
Type: functional

{"smiles_repr": "CC[C@H]1OC(=O)[C@H](C)[C@H]2OC3(CCN(C(=O)c4ccoc4)CC3)O[C@](C)(C[C@@H](C)CN[C@H](C)[C@@H](O)[C@]1(C)O)[C@H](O[C@@H]1O[C@H](C)C[C@H](N(C)C)[C@H]1O)[C@H]2C", "MIC [µg/mL]": 0.78}
{"smiles_repr": "CC[C@H]1OC(=O)[C@H](C)[C@H]2OC3(CCN(Cc4ccccn4)CC3)O[C@](C)(C[C@@H](C)CN[C@H](C)[C@@H](O)[C@]1(C)O)[C@H](O[C@@H]1O[C@H](C)C[C@H](N(C)C)[C@H]1O)[C@H]2C", "MIC [µg/mL]": 0.2}
{"smiles_repr": "CC[C@H]1OC(=O)[C@H](C)[C@H]2OC3(CCN(C(=O)c4cccn4C)CC3)O[C@](C)(C[C@@H](C)CN[C@H](C)[C@@H](O)[C@]1(C)O)[C@H](O[C@@H]1O[C@H](C)C[C@H](N(C)C)[C@H]1O)[C@H]2C", "MIC [µg/mL]": 1.56}
{"smiles_repr": "CC[C@H]1OC(=O)[C@H](C)[C@H]2OC3(CCN(C(=O)c4ccnc5ccccc45)CC3)O[C@](C)(C[C@@H](C)CN[C@H](C)[C@@H](O)[C@]1(C)O)[C@H](O[C@@H]1O[C@H](C)C[C@H](N(C)C)[C@H]1O)[C@H]2C", "MIC [µg/mL]": 6.25}
{"smiles_repr": "CC[C@H]1OC(=O)[C@H](C)[C@H]2OC3(CCN(C(=O)c4cnc5ccccc5c4)CC3)O[C@](C)(C[C@@H](C)CN(C)[C@H](C)[C@@H](O)[C@]1(C)O)[C@H](O[C@@H]1O[C@H](C)C[C@H](N(C)C)[C@H]1O)[C@H]2C", "MIC [µg/mL]": 6.25}
{"smiles_repr": "CC[C@H]1OC(=O)[C@H](C)[C@H]2OC3(CCN(CCc4ccc(Cl)c(Cl)c4)CC3)O[C@](C)(C[C@@H](C)CN[C@H](C)[C@@H](O)[C@]1(C)O)[C@H](O[C@@H]1O[C@H](C)C[C@H](N(C)C)[C@H]1O)[C@H]2C", "MIC [µg/mL]": 3.13}
{"smiles_repr": "CC[C@H]1OC(=O)[C@H](C)[C@H]2OC3(CCN(C(=O)c4cccs4)CC3)O[C@](C)(C[C@@H](C)CN(C)[C@H](C)[C@@H](O)[C@]1(C)O)[C@H](O[C@@H]1O[C@H](C)C[C@H](N(C)C)[C@H]1O)[C@H]2C", "MIC [µg/mL]": 1.56}
{"smiles_repr": "CC[C@H]1OC(=O)[C@H](C)[C@H]2OC3(CCN(C(=O)c4cccnc4)CC3)O[C@](C)(C[C@@H](C)CN(C)[C@H](C)[C@@H](O)[C@]1(C)O)[C@H](O[C@@H]1O[C@H](C)C[C@H](N(C)C)[C@H]1O)[C@H]2C", "MIC [µg/mL]": 3.13}
{"smiles_repr": "CC[C@H]1OC(=O)[C@H](C)[C@H]2OC3(CCN(Cc4ccncc4)CC3)O[C@](C)(C[C@@H](C)CN[C@H](C)[C@@H](O)[C@]1(C)O)[C@H](O[C@@H]1O[C@H](C)C[C@H](N(C)C)[C@H]1O)[C@H]2C", "MIC [µg/mL]": 0.78}

---

System: Staphylococcus aureus
Experiment: Effective dose required to inhibit Staphylococcus aureus intraperitoneal (IP) infection model
Type: functional
This listing pairs compounds with measured ED50.

{"smiles_repr": "CC[C@H]1OC(=O)[C@H](C)[C@H]2OC3(CCN(Cc4ccccn4)CC3)O[C@](C)(C[C@@H](C)CN(C)[C@H](C)[C@@H](O)[C@]1(C)O)[C@H](O[C@@H]1O[C@H](C)C[C@H](N(C)C)[C@H]1O)[C@H]2C", "value_prefix": "=", "ED50 / mg/kg": 17}
{"smiles_repr": "CC[C@H]1OC(=O)[C@H](C)[C@H]2OC3(CCN(C(=O)c4cccnc4)CC3)O[C@](C)(C[C@@H](C)CN(C)[C@H](C)[C@@H](O)[C@]1(C)O)[C@H](O[C@@H]1O[C@H](C)C[C@H](N(C)C)[C@H]1O)[C@H]2C", "value_prefix": "=", "ED50 / mg/kg": 10}
{"smiles_repr": "CC[C@H]1OC(=O)[C@H](C)[C@H]2OC3(CCN(CCc4ccccc4OC)CC3)O[C@](C)(C[C@@H](C)CN(C)[C@H](C)[C@@H](O)[C@]1(C)O)[C@H](O[C@@H]1O[C@H](C)C[C@H](N(C)C)[C@H]1O)[C@H]2C", "value_prefix": ">", "ED50 / mg/kg": 20}
{"smiles_repr": "CC[C@H]1OC(=O)[C@H](C)[C@H]2OC3(CCN(C(=O)c4cnccn4)CC3)O[C@](C)(C[C@@H](C)CN[C@H](C)[C@@H](O)[C@]1(C)O)[C@H](O[C@@H]1O[C@H](C)C[C@H](N(C)C)[C@H]1O)[C@H]2C", "value_prefix": "=", "ED50 / mg/kg": 6.1}

Source: ChEMBL document CHEMBL1134903
